Target: human ETA receptors (Homo sapiens, UniProt P25101)
Construct: endogenous in cells; host or cells: TE 671 cells (ATCC HTB 139)
Sequence (P25101 21-427): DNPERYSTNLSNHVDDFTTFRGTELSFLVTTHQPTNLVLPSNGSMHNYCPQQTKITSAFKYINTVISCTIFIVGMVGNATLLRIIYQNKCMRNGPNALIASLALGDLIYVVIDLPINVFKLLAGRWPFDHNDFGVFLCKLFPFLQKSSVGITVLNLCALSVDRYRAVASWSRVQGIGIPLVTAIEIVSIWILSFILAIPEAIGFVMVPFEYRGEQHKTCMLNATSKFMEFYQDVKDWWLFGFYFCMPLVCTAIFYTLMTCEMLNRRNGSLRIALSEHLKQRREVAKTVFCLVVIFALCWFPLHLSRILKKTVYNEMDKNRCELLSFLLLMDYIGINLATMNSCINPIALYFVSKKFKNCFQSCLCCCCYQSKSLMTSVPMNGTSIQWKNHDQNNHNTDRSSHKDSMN
Test: Binding Test #1: inhibition of 125I-ET-1 binding to ETA receptors (TE 671 cell membranes)
Conditions: Table 1; † incubation at 24° C.; read-out: ETA
pIC50: −log10 of the molar value.
Could you label it Condition met if measured pIC50 is 5 or higher, and Condition not met otherwise?

Completed entries (count: 5):
Req: Test whether the compound Cc1noc(NS(=O)(=O)c2ccsc2C(=O)OC2CCCCC2)c1Cl records pIC50 of 5 or higher.
Resp: Condition met

Req: Test whether the compound Cc1noc(NS(=O)(=O)c2ccsc2C(=O)Oc2ccc3c(c2)OCO3)c1C [N-(3,4-dimenthyl-5-isoxazolyl)-2-[3,4-(methylenedioxy)phenox] records pIC50 of 5 or higher.
Resp: Condition met

Req: Test whether the compound Cc1noc(NS(=O)(=O)c2ccsc2C(=O)Cc2ccc3c(c2)OCO3)c1Cl records pIC50 of 5 or higher.
Resp: Condition met

Req: Test whether the compound Cc1noc(NS(=O)(=O)c2sccc2Sc2ccccc2)c1Br records pIC50 of 5 or higher.
Resp: Condition met

Req: Test whether the compound Cc1noc(NS(=O)(=O)c2c(C(=O)O)n(C)c3ccccc23)c1Br records pIC50 of 5 or higher.
Resp: Condition met

Continuing:
Req: Test whether the compound CCc1ccc(-c2ccc(S(=O)(=O)Nc3onc(C)c3Br)s2)s1 records pIC50 of 5 or higher.
Resp: Condition not met

Req: Test whether the compound Cc1ccc(CC(=O)c2sccc2S(=O)(=O)Nc2onc(C)c2Cl)c(C)c1 records pIC50 of 5 or higher.
Resp: Condition met

Req: Test whether the compound Cc1noc(NS(=O)(=O)c2ccc(-c3cccc4ccccc34)s2)c1Br records pIC50 of 5 or higher.
Resp: Condition not met

Req: Test whether the compound COC(=O)c1cc(OC)c(OC)cc1NC(=O)c1sccc1S(=O)(=O)Nc1onc(C)c1Cl [N-(4-chloro-3-methyl-5-isoxazolyl)2-{[4,5-dimethoxy-2,4,5-di] records pIC50 of 5 or higher.
Resp: Condition met

Req: Test whether the compound Cc1noc(NS(=O)(=O)c2sccc2CC=Cc2cc3c(cc2COC2CCCCO2)OCO3)c1Br (stereo not shown) records pIC50 of 5 or higher.
Resp: Condition met

Req: Test whether the compound Cc1ccc(NC(=O)c2ccc(S(=O)(=O)Nc3onc(C)c3Br)s2)cc1 records pIC50 of 5 or higher.
Resp: Condition not met

Req: Test whether the compound Cc1cc2c(cc1C=CCc1sccc1S(=O)(=O)Nc1onc(C)c1Br)OCO2 records pIC50 of 5 or higher.
Resp: Condition met

Req: Test whether the compound Cc1noc(NS(=O)(=O)c2ccc(-c3cc(C(F)(F)F)cc(C(F)(F)F)c3)s2)c1Br records pIC50 of 5 or higher.
Resp: Condition met

Req: Test whether the compound Cc1noc(NS(=O)(=O)c2sccc2CCc2ccc3c(c2)OCO3)c1Br records pIC50 of 5 or higher.
Resp: Condition met

Req: Test whether the compound Cc1noc(NS(=O)(=O)c2ccsc2NC(=O)Nc2sccc2S(=O)(=O)Nc2onc(C)c2Br)c1Br records pIC50 of 5 or higher.
Resp: Condition met

These entries and their values trace back to patent US6683103B2.
